# TARGET ENTITY: T1, IgG-Fc (UniProt P01857-1 108-330 = IgG part, limits assumed)
# T1 construct: domain: IgG-Fc; also called biotinylated-IgG-Fc; biotin-IgG-Fc
# ASSAY REMARKS: synthetic peptide; competition assay not given
Bridges are numbered along the chain shown (N, C = ends).
MEASUREMENT NAME: IC50 (nM)
The response must be a number in nM with no trailing unit.

Entry H-WEADCAWHLGELVWCTPMEF-NH2 (disulfide 5-15 (inferred), Synthetic peptide) [peptide WEADCAWHLGELVWCTPMEF] : reported IC50 = ? 30

Data credit: patent US20040253247A1
